Target: HDAC3 (Homo sapiens)
Sequence (O15379 whole entry): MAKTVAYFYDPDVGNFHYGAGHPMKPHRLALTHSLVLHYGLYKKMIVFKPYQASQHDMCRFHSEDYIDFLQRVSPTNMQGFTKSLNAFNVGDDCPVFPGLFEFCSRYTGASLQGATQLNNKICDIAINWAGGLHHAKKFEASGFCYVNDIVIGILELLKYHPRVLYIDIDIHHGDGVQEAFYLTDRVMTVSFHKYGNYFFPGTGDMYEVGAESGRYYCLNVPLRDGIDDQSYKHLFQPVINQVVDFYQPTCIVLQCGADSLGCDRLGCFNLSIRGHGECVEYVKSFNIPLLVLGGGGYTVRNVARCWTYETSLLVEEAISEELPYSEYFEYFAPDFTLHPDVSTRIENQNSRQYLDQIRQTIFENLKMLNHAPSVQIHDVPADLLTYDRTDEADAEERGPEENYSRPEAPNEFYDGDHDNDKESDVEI
Sequence (Q9Y618 395-489 partner limits assumed): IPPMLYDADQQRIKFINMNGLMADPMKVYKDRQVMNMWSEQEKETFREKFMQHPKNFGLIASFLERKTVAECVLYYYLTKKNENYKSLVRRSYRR
Experiment: in vitro biochemical HDAC inhibition assay
Details: Table 4; read-out: IC50 HDAC3
pIC50: −log10 of the molar value.
measurement.name: pIC50

Worked cases, pIC50 given:
>>> df
                               smiles_entry  test_result
0  Nc1ccc(-c2ccccc2)cc1NC(=O)/C=C/c1ccc(N2CCNCC2)c(C2CC2)c1         6.66
1  CC1(Nc2ncc(C(=O)Nc3cc(-c4cccs4)ccc3N)cn2)CCN(C(=O)N2CCNCC2)CC1         6.71
2  Nc1ccc(-c2cccs2)cc1NC(=O)c1ccc(N2CCNCC2)cc1C1CC1         6.68
3  Nc1ccc(-c2cccs2)cc1NC(=O)/C=C/c1ccc(N2CCNCC2)c(C2CC2)c1         6.87
4    Nc1ccccc1NC(=O)c1ccc(N2CCNCC2)cc1C1CC1         7.64
5  CC1(Nc2ccc(C(=O)Nc3cc(-c4ccncc4)ccc3N)cc2)CCN(C(=O)N2CCOCC2)CC1         6.29
6  Nc1ccc(-c2cccs2)cc1NC(=O)c1cnc(NC2CCN(C(=O)N3CCOCC3)CC2)nc1         6.55
7  CC1(Nc2ncc(C(=O)Nc3cc(-c4cccs4)ccc3N)cn2)CCN(C(=O)N2CCCC2)CC1         6.17

A. CN1CCN(c2ccc(C(=O)Nc3cc(-c4ccccc4)ccc3N)cc2C2CC2)CC1
B. CN1CCN(C(=O)N2CCC(C)(Nc3ncc(C(=O)Nc4cc(-c5cccs5)ccc4N)cn3)CC2)CC1
I'd appreciate it if you could identify which of A and B has the greater pIC50. Give the label under which the chosen entry appears.
B
